Test system: FLT1
Settings: concentration: 1 μM, replicates: in singlicate; n = 1;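 also: KINOMEscan kinase panel screen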
metric: %Inh (%)
Enter your answer as a number in %; do not include the unit.

                            compound_string  metric  units  recorded_number
0  O=C1NC(=O)C(c2ccc(Cl)cc2)=C1Nc1cccc(Cl)c1    %Inh      %                0
1  O=C(Nc1n[nH]c2nc(-c3cccs3)c(Br)cc12)C1CCCC1    %Inh      %               10
2  CS(=O)(=O)CCNCc1nc(-c2ccc3ncnc(Nc4ccc(OCc5ccccc5)c(Cl)c4)c3c2)cs1.Cl    %Inh      %                5
3  Cc1c(Cn2c(C)c(C)n3c(=O)cc(N4CCOCC4)nc23)cccc1C(F)(F)F    %Inh      %                8

What does the data say about its %Inh? Entry: NS(=O)(=O)c1cccc(N/C=C2\C(=O)Nc3ccc(S(=O)(=O)Cc4c(Cl)cccc4Cl)cc32)c1
12

// same read-out, input: Cn1cnc2c(N)ncnc21
0

Proceed to CC(C)c1ccc(O)cc1Nc1ccnc2ccc(C(F)(F)F)cc12
21

Try this compound too: COc1cccc(NC(=O)Nc2ccc(C)c(-c3ccc(C(=O)Nc4ccncc4)cc3)c2)c1
37

Follow-up entry: Cc1ccc(NC(=O)Nc2ccc(Cl)c(C(F)(F)F)c2)cc1-c1ccc(C(=O)Nc2ccncc2)cc1
23

---

Test system: RSK4(Kin.Dom.1-N-terminal)
Construct: gene RPS6KA6
Conditions: concentration: 1 μM, replicates: in singlicate; n = 1
metric: %Inh
Reply with a number, then the unit it belongs to.

Field: example entries. Status: answers known.
>>> print(df.to_string())
                                   compound  result
0  CSc1ccc(-c2nc3n(c2-c2ccncc2)CCC3)cc1 [SKF-105561]      8%
1  O=C(Nc1n[nH]c2nc(-c3ccco3)c(Br)cc12)C1CCN(Cc2ccccc2)C1.O=C(O)[C@H](O)[C@@H](O)C(=O)O (stereo not shown) [SB-742034]     16%
2  O=C1NC(=O)C(c2ccc(Cl)cc2)=C1Nc1cccc(Cl)c1 [SB-317651]      0%

Dear colleague, I am looking for the recorded %Inh of the following compound: Nc1nccc(-c2c(-c3ccc(F)cc3)ncn2C2CCN(Cc3ccccc3)CC2)n1 [SB-219980]
30%

---

Tested on: CHEK2
Settings: concentration: 1 μM, replicates: in singlicate; n = 1
metric: %Inh (%)
The figure you give is taken to be in %; do not add the unit.

>>> print(df.to_string())
                            compound_string  tested_target  units  recorded_number
0  COc1ccc(Nc2nccc(-c3ccc(NC(=O)c4cc5cc(F)ccc5[nH]4)cc3)n2)cc1          CHEK2      %               26
1       CNc1cc(-c2ccc3c(N)n[nH]c3c2)nc(N)n1          CHEK2      %               84
2  Nc1nccc(-c2c(-c3ccc(F)cc3)ncn2C2CCN(Cc3ccccc3)CC2)n1          CHEK2      %                8
3  CC[C@@H]1CO[C@H](C(=O)Nc2ccccc2)CN1c1cc(-c2ccc3c(N)n[nH]c3c2)nc(NC)n1          CHEK2      %               29

Next compound, please.
Returns the measured %Inh for the input compound. Input: O=C1NC(=O)C(c2ccc(Cl)cc2)=C1Nc1cccc(Cl)c1
0

---

# Lookup of reported %Inh keyed by entry
System: CDKL2
Conditions: concentration: 1 μM, replicates: in singlicate; n = 1
Could you give me the number in %? Just the number is fine.

                                   molecule  tested_target  units  recorded_number
0  O=C(Nc1n[nH]c2nc(-c3cccs3)c(Br)cc12)C1CC1          CDKL2      %             96.4
1      CSc1ccc(-c2nc3n(c2-c2ccncc2)CCC3)cc1          CDKL2      %                0
2  COC(=O)c1cccc(NC(=O)NC2CCN(c3ccnc(Nc4ccc(F)cc4)n3)C2)c1 (stereo not shown)          CDKL2      %               82
3     Cc1ccccc1Cn1ccn2c(=O)cc(N3CCOCC3)nc12          CDKL2      %               15
4  Nc1ncnc2occ(-c3ccc4c(c3)CCN4C(=O)Cc3cc(F)ccc3F)c12          CDKL2      %                0

Given the entry COc1cccc(C2=C(Nc3cc(Cl)c(O)c(Cl)c3)C(=O)NC2=O)c1 , report its measured %Inh.
20

Same thing, different molecule: CC(C)c1ccc(O)cc1Nc1ccnc2ccc(C(F)(F)F)cc12
5

---

Documented %Inh across a set of compounds
Tested on: GAK
Conditions: concentration: 1 μM, replicates: in singlicate; n = 1
Report only the number, with the unit % understood.

See these solved cases before continuing.
                                   compound  metric  recorded_number
0  Cc1nccc(-c2c(-c3ccc(F)cc3)ncn2CCCN2CCOCC2)n1.Cl    %Inh                9
1  Cc1c(Cn2c3ccccc3n3c(=O)cc(N4CCOCC4)nc23)cccc1C(F)(F)F    %Inh               18
2        CCCCc1nn2ncccc2c1-c1ccnc(NC2CC2)n1    %Inh               72
3             CCn1c(-c2c(N)noc2C)nc2cnccc21    %Inh               21
4  COc1ccc(CSc2nnc(-c3ccc4ncsc4c3)o2)cc1C(F)(F)F    %Inh                0
5  CC[C@@H]1CO[C@H](C(=O)Nc2ccccc2)CN1c1cc(-c2ccc3c(N)n[nH]c3c2)nc(NC)n1    %Inh               26
6  Cl.Cl.Cl.N#Cc1ccc(CCNc2nccc(-c3cccc(CN4CCNCC4)c3)n2)cc1    %Inh               26
7  CS(=O)(=O)Cc1ccc(Nc2nccc(-c3c(-c4cccc(NC(=O)C5CCCCC5)c4)nn4ncccc34)n2)cc1    %Inh               14

Looking for the measured %Inh of COc1ccc(Nc2nccc(N3CCC(NC(=O)C(C)c4ccc(Cl)cc4)CC3)n2)cc1 (stereo not drawn) , can you help?
1

Item: FC(F)(F)c1ccccc1-c1cc(-c2c[nH]nc2-c2ccccn2)ccn1
27

Proceed to Nc1nccc(-c2c(-c3ccc(F)cc3)ncn2C2CCN(Cc3ccccc3)CC2)n1
12

// next record Cc1c(Cn2c(C)c(C)n3c(=O)cc(N4CCOCC4)nc23)cccc1C(F)(F)F
8

Lookup CNc1cc(-c2ccc3c(N)n[nH]c3c2)nc(N)n1
9

# iterate: Cc1ccc(NC(=O)Nc2ccccc2)cc1-c1ccc(C(=O)Nc2ccncc2)cc1
4

Now the compound Cc1ccccc1Cn1ccn2c(=O)cc(N3CCOCC3)nc12
1

Then this compound: COC(=O)c1cccc(NC(=O)NC2CCN(c3ccnc(Nc4ccc(OC)cc4)n3)C2)c1 (stereo not drawn)
0

Also Fc1ccc(-c2nn3cccc(F)c3c2-c2ccncc2)cc1 , if possible.
65

Likewise for Cn1cnc2c(N)ncnc21 ?
0

---

Catalogue of %Inh values
Test system: PDGFRA
Conditions: concentration: 1 μM, replicates: in singlicate; n = 1
Reply numerically in %, unit not repeated.

Recorded results for 6 compounds are shown here.
                                   compound  recorded_number
0  Cc1c(Cn2c(C)c(C)n3c(=O)cc(N4CCOCC4)nc23)cccc1C(F)(F)F [GSK2328680]                0
1  O=c1cc(N2CCOCC2)nc2n(Cc3ccccc3F)ccn12 [GSK2297428]                0
2  CNCc1ccc2nc(NC(=O)c3ccc(C(C)(C)C)cc3)cn2c1               73
3  COc1ccc2cc(-c3nc(-c4ccccc4C(C)C)[nH]c3-c3ccncc3)ccc2c1 [SB-660566]                0
4  Cc1cccc2c(-c3ccncn3)c(-c3ccc(F)cc3)nn12 [GW515532]                0
5   c1ccc(-c2ccnc3[nH]ccc23)cc1 [SB-693578]                0

Please report the recorded %Inh for Cc1cnc(N)c(/C=C/c2cncc(C(=O)NCCc3ccc(Cl)cc3Cl)c2)c1.Cl [GSK190937] .
96.4

Then Nc1ncnc2occ(-c3ccc4c(c3)CCN4C(=O)Cc3cc(F)ccc3F)c12 [GSK2645446] ?
0

And then Cc1ccccc1-c1cc(-c2c[nH]nc2-c2ccccn2)ccn1 [GW680061] , what is it?
0

Now try COc1ccc(CSc2nnc(-c3ccc4nccn4c3)o2)cc1C(F)(F)F .
28
